Target: T1, β-catenin (UniProt P35222 1-781, limits assumed)
T1 construct: also called beta-catenin
T1 sequence (looked up): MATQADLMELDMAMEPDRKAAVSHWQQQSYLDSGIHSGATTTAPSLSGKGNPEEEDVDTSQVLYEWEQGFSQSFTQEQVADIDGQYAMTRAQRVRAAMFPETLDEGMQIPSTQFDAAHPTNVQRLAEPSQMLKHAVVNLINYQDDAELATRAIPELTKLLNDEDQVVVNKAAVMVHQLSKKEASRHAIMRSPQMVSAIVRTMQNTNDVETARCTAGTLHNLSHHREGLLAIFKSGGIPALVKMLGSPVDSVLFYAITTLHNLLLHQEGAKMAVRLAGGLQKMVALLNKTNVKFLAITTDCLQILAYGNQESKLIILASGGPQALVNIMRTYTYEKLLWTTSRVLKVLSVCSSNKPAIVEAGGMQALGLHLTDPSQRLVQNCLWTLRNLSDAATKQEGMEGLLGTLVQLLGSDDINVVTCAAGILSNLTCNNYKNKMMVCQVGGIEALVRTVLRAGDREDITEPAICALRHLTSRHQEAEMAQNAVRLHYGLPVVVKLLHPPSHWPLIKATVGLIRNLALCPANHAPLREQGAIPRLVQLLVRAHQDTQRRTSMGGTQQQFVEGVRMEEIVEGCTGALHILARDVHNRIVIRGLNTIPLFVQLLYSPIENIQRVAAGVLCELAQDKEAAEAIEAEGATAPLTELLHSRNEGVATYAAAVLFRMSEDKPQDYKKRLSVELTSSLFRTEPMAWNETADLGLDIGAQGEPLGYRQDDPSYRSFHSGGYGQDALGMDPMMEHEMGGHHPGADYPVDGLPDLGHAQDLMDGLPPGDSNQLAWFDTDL
Test: ALPHA Screen (BCL9/β-catenin);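 note: bead proximity readout with the polypeptide linked to donor beads and β-catenin fixed on acceptor beads, their binding bringing the beads close enough to emit signal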
Bridges are numbered along the chain shown (N, C = ends). [ ]: non-standard residue; d: D form. 2Nal = N[C@@H](Cc1ccc2ccccc2c1)C(=O)O; tBuAla = CC(C)(C)C[C@H](N)C(=O)O; NMeQ = CN[C@@H](CCC(N)=O)C(=O)O; Cba = N[C@@H](CC1CCC1)C(=O)O; S5 = C=CCCC[C@](C)(N)C(=O)O
Below is a list of entries, each paired with its recorded IC50 value.
Give the figure together with its unit, number first.

// known answers, use as guide
Ac-HR[NMeQ]RSLQTLR[S5]IQR[S5][tBuAla][2Nal]-NH2 (staple 11-15; also: N-methylglutamine 3: D or L (filing names both)) [SEQ ID NO: 193] ... 323 nM
HRQRSLQTLXXIQRXAA (H(homoArg)QRSLQTL(Cit)XIQRX(Cha)(2-Nal); X/X stapled, (S) α-methyl; N-terminal Ac; C-terminal NH2) [SEQ ID NO: 223] ... 573 nM
Ac-L[NMeQ]TLR[S5][Cba]QR[S5][Cba][2Nal]-NH2 (staple 6-10; not fully specified; printed as L(N-methylQ)TLRX(CBA)QRX(CBA)(2-Nal)) [SEQ ID NO: 129] ... 2060 nM

Field: next binder
Which value of IC50 has been reported for Ac-LQTLR[S5]IQA[S5]L[2Nal]AA-NH2 (staple 6-10; not fully specified; printed as LQTLRXIQAXL(2-Nal)AA) [SEQ ID NO: 27] in the records?
6120 nM
